Catalogue of activity change, negative = inhibition values
# Experiment: AP1 Signaling Pathway (AID 357);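 also: ME-180 reporter cells stimulated with EGF at its EC50 level; % is scaled to controls: 0 for no effect and ±100 for the full control effect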
# Conditions: ME-180 (cervical carcinoma) AP-1-bla reporter, EGF-induced, beta-lactamase ratio, 5 h; at 17.2 µM (top of the series) unless noted
Inconclusive results are not listed. Calls of active or inactive are those of the source. Calls follow the shape of the dose curve; as a rule, active = well fitted curve in either direction with a large enough effect (not every such curve was filed as active); inconclusive = small, poorly fitted or top-dose-only effect, or another doubt; inactive = flat fitted curve, though single readings scatter.

Compound	activity change, negative = inhibition
CN1CCc2nc(SCC(=O)OC(C)(C)C)c(C#N)cc2C1	-5.69% (inactive)
O=c1[nH]c2ccccc2c(=O)n1-c1cccc(Cl)c1	24.2% (inactive)
CCCCOCCCn1c(N)c(C(=O)OCCOC)c2nc3ccccc3nc21	-2.11% (inactive)
Cc1ccc(-n2c(O)c(C=NCCN3CCOCC3)c(=O)[nH]c2=O)cc1	6.04% (inactive)
CCN(CC)CCN=Cc1c(O)n(CCc2ccccc2)c(=O)[nH]c1=O	-7.05% (inactive)
C[N+]1(C)[C@@H]2CC(OC(=O)[C@@H](CO)c3ccccc3)C[C@@H]1[C@H]1O[C@H]12 (stereo not given in full)	0.541% [at 7.69 µM] (inactive)
CCN1C[C@]2(C)CC[C@@H](O)[C@]34[C@@H]5CC6[C@@H](OC)C[C@@](O)([C@H]5[C@@H]6O)[C@@H](C[C@@H]23)[C@H]14	5.54% [at 38 µM] (inactive)
CC1CCC(C(C)C)C(OP(N)(=O)c2ccccc2)C1 (stereo not given)	-1.85% (inactive)
Cc1ccc2c(c1)[C@@H]1CN(C)CC[C@@H]1N2C(=O)Nc1cccc(C(F)(F)F)c1	28.8% (inactive)
CC(=O)OC1N=C(c2ccccc2)c2ccccc2NC1=O (stereo not given)	-8.32% (inactive)

---

# Experiment: S16 Schwann cell PMP22 intronic element firefly luciferase assay (AID 624032); also: nearly all actives have a fitted effect of over 30% in size
# Conditions: S16 rat Schwann cells, PMP22 element FLuc, 24 h; series mostly up to 57.5 µM
# Description: Charcot-Marie-Tooth-Association [CMTA] National Center for Advancing Translational Sciences [NCATS] […] The FLuc-expressing S16 cells were seeded in white solid 1536-well plates at between 500-750 cells/4uL in DMEM medium containing 10% FBS, w/o phenol red. […] Luminescence was measured on a ViewLux plate reader (Perkin Elmer). The % activity was determined by normalizing to the average readings of PTC124 (a positive control) - treated cells relative to DMSO-treated cells (0% Activity). […]
Inconclusive results are not listed. The source made the active and inactive calls. Calls come from the whole dose curve; as a rule, active = well fitted inhibition curve with a large enough effect; inconclusive = small, poorly fitted or top-dose-only effect; inactive = no such curve, though single readings can be large or run the other way.
Outcomes: class 1 (active), class 0 (inactive)

Molecule	Class name
OC[C@@H](O)[C@H]1O[C@@H]2OC(C(Cl)(Cl)Cl)O[C@H]2[C@H]1O (stereo not given in full)	class 0
CCCN1CCCC2Cc3nc(N)ncc3CC21 (stereo not given)	class 0
O=C1CC2OCC=C3CN4CC[C@]56c7ccccc7N1C5C2[C@H]3C[C@H]46 (stereo not given in full)	class 0
[O-][N+](=Nc1ccccc1)c1ccccc1	class 0
C[C@]12CC[C@H]3[C@@H](CC[C@@]45O[C@@H]4C(=O)C(C#N)C[C@]35C)[C@@H]1CC[C@@H]2O (stereo not given in full)	class 0
C#C[C@]1(O)CC[C@H]2[C@@H]3CCC4=CC(=O)CCC4(C)[C@H]3CCC21C (stereo not given in full)	class 0
C[C@]12C=CC(=O)C=C1CC[C@@H]1C2CC[C@]2(C)OC(=O)CCC12 (stereo not given in full)	class 0
CCCCCCCCCCCCCCCCCC[N+](C)(C)CCC[Si](OC)(OC)OC	class 1
CN(C)C1C(=O)C(C(N)=O)C(=O)C2(O)C(=O)C3C(=O)c4c(O)cccc4C(C)(O)C3C(O)C12 (stereo not given)	class 0
CCOC(=O)c1cncn1[C@@H](C)c1ccccc1	class 0
CN(C)CCCCCCN(C)C	class 0
C#CC1(O)C=CC2C3CCC4=CC(=O)CCC4C3CCC21CC (stereo not given)	class 1
CC12CCC3C4CCC(=O)C(O)=C4CCC3C1CCC2OC(=O)CCC1CCCC1 (stereo not given)	class 0
CC1OC(OC2C(O)CC(OC3C(O)CC(OC4CCC5(C)C(CCC6C5CCC5(C)C(C7=CC(=O)OC7)CCC65O)C4)OC3C)OC2C)CC(O)C1O (stereo not given)	class 1
COc1ccc2c3c1O[C@H]1[C@@H](O)C=C[C@H]4C(C2)NCCC341 (stereo not given in full)	class 0
CC(=O)Oc1ccc2c3c1OC1[C@@H](OC(C)=O)C=C[C@H]4[C@H](C2)N(C)CC[C@]314 (stereo not given in full)	class 0
CC(CO)NC(=O)C1C=C2c3cccc4[nH]cc(c34)CC2N(C)C1 (stereo not given)	class 0
Nc1nc(O)c(-c2ccccc2)o1	class 0
OCC(O)[C@H]1O[C@@H]2O[C@H](C(Cl)(Cl)Cl)O[C@@H]2[C@H]1O (stereo not given in full)	class 0
COc1cc(-c2ccc(-[n+]3nc(-c4ccccc4)nn3-c3ccc([N+](=O)[O-])cc3)c(OC)c2)ccc1-[n+]1nc(-c2ccccc2)nn1-c1ccc([N+](=O)[O-])cc1	class 1
